In this section we review reported pKd values for a set of binders.
# target of assay: T1, human IFN-ω (human, UniProt P05000 24-195)
# T1 construct: also called interferon omega
# experimental details: ProteOn, one antigen concentration
Value format note: pKd is -log10 of concentration (mol/L); just state the number.

Use these answered entries as a reference point.
>  <binder>
IFWM3355 (antibody, V domains shown, VH IFWH624, VL IFWL1022; converted mAb; also called IFWB3090) VH: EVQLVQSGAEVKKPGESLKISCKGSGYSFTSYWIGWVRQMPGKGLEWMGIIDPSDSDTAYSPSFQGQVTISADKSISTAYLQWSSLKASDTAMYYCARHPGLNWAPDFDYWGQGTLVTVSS VL: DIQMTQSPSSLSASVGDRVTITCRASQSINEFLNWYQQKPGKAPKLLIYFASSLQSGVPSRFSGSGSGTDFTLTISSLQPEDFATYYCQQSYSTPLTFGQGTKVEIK

>  <pKd>
10.59

$$$$
>  <binder>
IFWM3346 (antibody, V domains shown, VH IFWH624, VL IFWL1001; converted mAb; also called IFWB3081) VH: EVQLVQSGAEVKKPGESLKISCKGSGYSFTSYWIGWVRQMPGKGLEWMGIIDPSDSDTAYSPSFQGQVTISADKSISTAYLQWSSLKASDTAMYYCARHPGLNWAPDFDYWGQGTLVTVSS VL: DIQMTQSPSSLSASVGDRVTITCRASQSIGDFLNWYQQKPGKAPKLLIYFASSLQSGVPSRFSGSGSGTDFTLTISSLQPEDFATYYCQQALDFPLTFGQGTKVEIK

>  <pKd>
10.28

$$$$
>  <binder>
IFWM3341 (antibody, V domains shown, VH IFWH624, VL IFWL991; converted mAb; also called IFWB3076) VH: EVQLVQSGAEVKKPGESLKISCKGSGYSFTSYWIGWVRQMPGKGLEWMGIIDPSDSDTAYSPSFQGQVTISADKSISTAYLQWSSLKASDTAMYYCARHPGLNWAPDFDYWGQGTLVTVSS VL: DIQMTQSPSSLSASVGDRVTITCRASQSINRFLNWYQQKPGKAPKLLIYAASSLQSGVPSRFSGSGSGTDFTLTISSLQPEDFATYYCQQAIDLPFTFGQGTKVEIK

>  <pKd>
11.10

$$$$
>  <binder>
IFWM3354 (antibody, V domains shown, VH IFWH624, VL IFWL1017; converted mAb; also called IFWB3089) VH: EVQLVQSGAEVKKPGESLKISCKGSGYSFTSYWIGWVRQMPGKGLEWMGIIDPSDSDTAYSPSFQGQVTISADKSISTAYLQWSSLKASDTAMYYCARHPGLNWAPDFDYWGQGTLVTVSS VL: DIQMTQSPSSLSASVGDRVTITCRASQSITSSLNWYQQKPGKAPKLLIYFASSLQSGVPSRFSGSGSGTDFTLTISSLQPEDFATYYCQQSFDLPLTFGQGTKVEIK

>  <pKd>
10.77

$$$$

Now consider a different binder.
pKd in this record for IFWM3344 (antibody, V domains shown, VH IFWH624, VL IFWL998; converted mAb; also called IFWB3079) VH: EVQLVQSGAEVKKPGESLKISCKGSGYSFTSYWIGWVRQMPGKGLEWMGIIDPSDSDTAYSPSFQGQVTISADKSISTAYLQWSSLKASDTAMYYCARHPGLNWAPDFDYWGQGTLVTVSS VL: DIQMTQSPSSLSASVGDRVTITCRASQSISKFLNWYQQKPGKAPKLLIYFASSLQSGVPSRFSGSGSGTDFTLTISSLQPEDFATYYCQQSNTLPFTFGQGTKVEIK : 10.11
